Where these numbers come from: PubChem BioAssay (NCATS)

test system: CP265; experiment: qHTS profiling for inhibitors of Plasmodium falciparum proliferation (AID 504749); also: nearly all actives have a fitted effect of over 60% in size; conditions: P. falciparum in erythrocytes, SYBR Green DNA, 72 h; series mostly up to 12.8 µM
Inconclusive results are not listed. Calls of active or inactive are those of the source. Calls follow the shape of the dose curve; as a rule, active = well fitted inhibition curve with a large enough effect; inconclusive = small, poorly fitted or top-dose-only effect; inactive = flat fitted curve, though single readings scatter.
Respond only with the outcome that fits, drawn from y = active, n = inactive

>>> labelvalue("CC(=O)OC1CCC2C3CCc4cc(O)ccc4C3CCC12C (configuration not stated)")
"n"
>>> labelvalue("CC(=O)[C@@H]1CC[C@@H]2[C@@H]3C[C@H](C)C4=CC(=O)CC[C@@]4(C)[C@H]3[C@H](O)C[C@]21C")
"n"
>>> labelvalue("C[C@H](C(=O)O)c1cccc(Oc2ccccc2)c1")
"n"

From here, focus on the item given below.
Hello, I am checking results. What call was entered for CCC(C)(C)C(=O)O[C@@H]1C[C@H](C)C=C2C=C[C@H](C)[C@@H](CC[C@H]3C[C@@H](O)CC(=O)O3)[C@H]21 ?
n
